Target: panel of 255 wild-type kinases (Homo sapiens, UniProt P04626)
Sequence (P04626 23-1255): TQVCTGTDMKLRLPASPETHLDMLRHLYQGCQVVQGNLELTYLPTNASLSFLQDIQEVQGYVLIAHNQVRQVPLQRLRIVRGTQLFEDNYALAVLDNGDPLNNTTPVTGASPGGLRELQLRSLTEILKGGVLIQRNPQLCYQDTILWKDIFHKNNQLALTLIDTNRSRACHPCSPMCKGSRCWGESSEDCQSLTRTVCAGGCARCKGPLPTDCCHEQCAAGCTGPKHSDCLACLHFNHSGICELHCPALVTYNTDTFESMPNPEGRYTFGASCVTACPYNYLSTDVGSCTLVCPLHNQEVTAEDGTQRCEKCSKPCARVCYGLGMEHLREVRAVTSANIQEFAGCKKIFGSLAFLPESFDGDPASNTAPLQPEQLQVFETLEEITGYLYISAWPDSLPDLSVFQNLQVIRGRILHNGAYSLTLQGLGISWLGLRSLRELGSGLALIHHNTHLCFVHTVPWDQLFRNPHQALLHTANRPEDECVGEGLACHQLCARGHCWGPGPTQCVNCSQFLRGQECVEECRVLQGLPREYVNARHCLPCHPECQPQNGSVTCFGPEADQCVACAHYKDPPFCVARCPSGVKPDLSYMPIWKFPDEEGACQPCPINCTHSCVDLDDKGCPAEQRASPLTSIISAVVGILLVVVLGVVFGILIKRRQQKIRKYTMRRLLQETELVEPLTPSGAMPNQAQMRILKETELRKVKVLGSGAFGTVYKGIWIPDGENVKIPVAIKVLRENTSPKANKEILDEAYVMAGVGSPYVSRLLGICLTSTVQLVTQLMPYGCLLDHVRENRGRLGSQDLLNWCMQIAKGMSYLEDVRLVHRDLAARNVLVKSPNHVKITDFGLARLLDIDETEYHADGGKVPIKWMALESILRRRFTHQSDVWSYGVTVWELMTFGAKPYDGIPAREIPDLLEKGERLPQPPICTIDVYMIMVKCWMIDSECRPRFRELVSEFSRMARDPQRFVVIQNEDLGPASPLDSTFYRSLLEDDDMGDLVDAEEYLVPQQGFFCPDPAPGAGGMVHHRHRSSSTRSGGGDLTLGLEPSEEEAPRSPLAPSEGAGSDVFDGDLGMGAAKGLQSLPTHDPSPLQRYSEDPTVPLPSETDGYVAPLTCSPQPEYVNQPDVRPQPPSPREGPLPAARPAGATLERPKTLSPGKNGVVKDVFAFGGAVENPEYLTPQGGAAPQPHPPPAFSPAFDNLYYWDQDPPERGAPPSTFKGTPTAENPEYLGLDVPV
Experiment: Kinase panel profiling at 1 µmol/L (MSA or IMAP), percentage inhibition
Type: biochemical
Settings: kinase HER2; 1 µmol/L single concentration; read-out: %-inhibition at 1 µmol/L, HER2
Measurement kind: inhibition at 1 µM

Recorded results for 2 compounds are shown here.
Substance smiles	inhibition at 1 µM
COc1cc2ncnc(Nc3ccc(F)c(Cl)c3)c2cc1NC(=O)/C=C/CN1CCCCC1	100%
Cc1nc(NC(=O)N2CCC[C@H]2C(N)=O)sc1-c1ccnc(C(C)(C)C(F)(F)F)c1	19%

Now take the following compound into account.
Query: Reported inhibition at 1 µM, compound "CO[C@]1(C(=O)N[C@@H](C)c2ccc(-n3cc(F)cn3)nc2)CC[C@H](c2nc(C)cc(Nc3cc(C)[nH]n3)n2)CC1" : ____
Response: 20%

====

Target: panel of 255 wild-type kinases (Homo sapiens, UniProt O94804)
Sequence (O94804 whole entry): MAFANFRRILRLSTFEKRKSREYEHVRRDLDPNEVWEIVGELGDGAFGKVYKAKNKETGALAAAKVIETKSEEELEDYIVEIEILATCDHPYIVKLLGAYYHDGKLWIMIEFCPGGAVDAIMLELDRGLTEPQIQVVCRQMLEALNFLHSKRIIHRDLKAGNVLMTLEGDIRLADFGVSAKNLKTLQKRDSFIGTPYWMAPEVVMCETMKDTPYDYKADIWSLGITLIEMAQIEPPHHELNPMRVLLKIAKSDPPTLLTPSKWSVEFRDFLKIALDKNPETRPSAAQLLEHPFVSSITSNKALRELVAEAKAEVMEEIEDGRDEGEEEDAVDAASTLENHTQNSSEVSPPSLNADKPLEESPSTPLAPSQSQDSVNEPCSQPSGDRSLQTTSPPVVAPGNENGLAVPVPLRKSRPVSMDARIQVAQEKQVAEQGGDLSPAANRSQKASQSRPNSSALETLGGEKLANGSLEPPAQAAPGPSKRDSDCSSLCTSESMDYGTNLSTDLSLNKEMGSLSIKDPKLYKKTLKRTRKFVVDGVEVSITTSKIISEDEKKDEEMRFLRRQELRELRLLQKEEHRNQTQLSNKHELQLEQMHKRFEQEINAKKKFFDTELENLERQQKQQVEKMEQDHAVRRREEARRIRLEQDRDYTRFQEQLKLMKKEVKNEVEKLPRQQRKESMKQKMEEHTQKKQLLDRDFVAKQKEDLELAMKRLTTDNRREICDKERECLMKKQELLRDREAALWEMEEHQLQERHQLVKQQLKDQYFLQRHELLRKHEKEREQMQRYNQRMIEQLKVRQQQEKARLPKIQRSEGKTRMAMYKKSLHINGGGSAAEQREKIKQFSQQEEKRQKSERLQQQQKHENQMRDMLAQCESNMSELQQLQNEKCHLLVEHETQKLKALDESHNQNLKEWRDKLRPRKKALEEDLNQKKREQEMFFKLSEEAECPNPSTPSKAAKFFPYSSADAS
Assay: Kinase panel profiling at 1 µmol/L (MSA or IMAP), percentage inhibition
Assay type: biochemical
Conditions: kinase LOK; 1 µmol/L single concentration; read-out: %-inhibition at 1 µmol/L, LOK
Measurement kind: inhibition at 1 µM (%)
Just the number please, in %, no unit attached.

Substance smiles	Tested system	Measure unit	inhibition at 1 µM
CCN1CCN(c2ccc(Nc3cc(N(C)C(=O)Nc4c(Cl)c(OC)cc(OC)c4Cl)ncn3)cc2)CC1	panel of 255 wild-type kinases (Homo sapiens, UniProt O94804)	%	34
COc1cc2ncnc(Nc3ccc(F)c(Cl)c3)c2cc1NC(=O)/C=C/CN1CCCCC1	panel of 255 wild-type kinases (Homo sapiens, UniProt O94804)	%	86
CO[C@]1(C(=O)N[C@@H](C)c2ccc(-n3cc(F)cn3)nc2)CC[C@H](c2nc(C)cc(Nc3cc(C)[nH]n3)n2)CC1	panel of 255 wild-type kinases (Homo sapiens, UniProt O94804)	%	13

Attention now turns to another entry.
Query: Recorded inhibition at 1 µM for "FC(F)(F)c1ccc(CNc2ccc(Cc3c[nH]c4ncc(Cl)cc34)cn2)cn1" , please?
Response: 25

====

// inhibition at 1 µM lookup, one value per entry
Target: panel of 255 wild-type kinases (Homo sapiens, UniProt Q9BZL6)
Sequence (Q9BZL6 1-878): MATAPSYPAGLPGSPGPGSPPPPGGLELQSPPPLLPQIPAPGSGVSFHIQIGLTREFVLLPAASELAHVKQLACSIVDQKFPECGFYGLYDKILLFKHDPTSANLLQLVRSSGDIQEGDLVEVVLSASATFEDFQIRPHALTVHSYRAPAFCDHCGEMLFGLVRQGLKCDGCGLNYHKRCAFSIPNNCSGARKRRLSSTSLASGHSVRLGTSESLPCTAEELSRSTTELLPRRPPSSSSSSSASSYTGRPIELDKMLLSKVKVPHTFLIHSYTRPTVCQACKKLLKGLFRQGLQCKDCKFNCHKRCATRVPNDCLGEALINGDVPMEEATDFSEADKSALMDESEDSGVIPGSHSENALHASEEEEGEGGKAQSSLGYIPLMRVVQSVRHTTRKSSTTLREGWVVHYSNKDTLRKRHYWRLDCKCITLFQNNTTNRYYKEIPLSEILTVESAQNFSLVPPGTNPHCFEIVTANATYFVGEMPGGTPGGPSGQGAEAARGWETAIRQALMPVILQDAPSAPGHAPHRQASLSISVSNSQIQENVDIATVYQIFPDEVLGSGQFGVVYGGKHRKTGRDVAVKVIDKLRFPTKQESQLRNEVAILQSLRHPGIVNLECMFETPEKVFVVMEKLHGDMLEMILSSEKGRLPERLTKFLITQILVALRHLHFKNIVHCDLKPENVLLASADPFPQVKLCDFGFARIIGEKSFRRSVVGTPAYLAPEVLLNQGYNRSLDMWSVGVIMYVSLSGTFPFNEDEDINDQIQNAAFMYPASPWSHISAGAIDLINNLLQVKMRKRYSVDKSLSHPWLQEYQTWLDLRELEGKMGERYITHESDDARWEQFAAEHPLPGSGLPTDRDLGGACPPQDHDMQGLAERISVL
Assay: Kinase panel profiling at 1 µmol/L (MSA or IMAP), percentage inhibition
Type: biochemical
Settings: kinase PKD2; 1 µmol/L single concentration; read-out: %-inhibition at 1 µmol/L, PKD2
Could you give the number and then its unit, please?

Here are 3 compounds together with their reported answers.
Substance smiles	inhibition at 1 µM
COC(=O)N[C@@H](C)CNc1nccc(-c2cn(C(C)C)nc2-c2cc(Cl)cc(NS(C)(=O)=O)c2F)n1	2.49%
CCc1nc(C(N)=O)c(Nc2ccc(N3CCC(N4CCN(C)CC4)CC3)c(OC)c2)nc1NC1CCOCC1	56%
CCN1C(=O)N(c2c(F)c(OC)cc(OC)c2F)Cc2cnc3[nH]c(CN4CCOCC4)cc3c21	4.44%

Query: I have this compound here, "FC(F)(F)c1ccc(CNc2ccc(Cc3c[nH]c4ncc(Cl)cc34)cn2)cn1" , and I need its recorded inhibition at 1 µM.
Response: -5%
